system: Pasteurella multocida; test: Minimum inhibitory concentration against Pasteurella multocida; type: functional
Outcome measure: MIC (µg/mL)

- Structure: "CC[C@H]1OC(=O)[C@H](C)[C@@H](O[C@H]2C[C@@](C)(OC)[C@@](O)(C#CCN(C)C)[C@H](C)O2)[C@H](C)[C@@H](O[C@@H]2O[C@H](C)C[C@H](N(C)C)[C@H]2O)[C@](C)(O)C[C@@H](C)CN[C@H](C)[C@@H](O)[C@]1(C)O"
  Outcome measure: "MIC"
  Assay value: 0.2
- Structure: "CC#C[C@@]1(O)[C@H](C)O[C@@H](O[C@H]2[C@H](C)[C@@H](O[C@@H]3O[C@H](C)C[C@H](N(C)C)[C@H]3O)[C@](C)(O)C[C@@H](C)CN[C@H](C)[C@@H](O)[C@](C)(O)[C@@H](CC)OC(=O)[C@@H]2C)C[C@@]1(C)OC"
  Outcome measure: "MIC"
  Assay value: 0.2
- Structure: "CCC[C@@]1(O)[C@H](C)O[C@@H](O[C@H]2[C@H](C)[C@@H](O[C@@H]3O[C@H](C)C[C@H](N(C)C)[C@H]3O)[C@](C)(O)C[C@@H](C)CN[C@H](C)[C@@H](O)[C@](C)(O)[C@@H](CC)OC(=O)[C@@H]2C)C[C@@]1(C)OC"
  Outcome measure: "MIC"
  Assay value: 0.2
- Structure: "CC[C@H]1OC(=O)[C@H](C)[C@@H](O[C@H]2C[C@@](C)(OC)[C@@](O)(c3ccco3)[C@H](C)O2)[C@H](C)[C@@H](O[C@@H]2O[C@H](C)C[C@H](N(C)C)[C@H]2O)[C@](C)(O)C[C@@H](C)CN[C@H](C)[C@@H](O)[C@]1(C)O"
  Outcome measure: "MIC"
  Assay value: 0.2
